# Assayed Target: BCL6 (Homo sapiens, UniProt P41182)
# Construct: endogenous in cells; host or cells: T47D breast cancer epithelial cells
# Assay Remarks: Immunofluorescence high content imaging of BCL6 degradation in T47D cells
# Type: cell-based
# Condition Notes: T47D breast cancer epithelial cells, 3 days incubation
Recorded DC50 values for a group of molecules are listed next.
Property Name: DC50

INSERT INTO assay_data (molecule, property_name, endpoint_result) VALUES
  ('CNC(=O)COc1cc2cc(Nc3nc(N4CCC(O[C@H]5C[C@H](N6CC[C@H](c7cc(C)c8c(c7F)CN([C@H]7CCC(=O)NC7=O)C8=O)[C@H](F)C6)C5)CC4)ncc3Cl)ccc2n(C(C)C)c1=O', 'DC50', '< 10 nM'),
  ('CNC(=O)COc1cc2cc(Nc3nc(N4CCC(O[C@H]5C[C@H](N6CCN(c7ccc8c(c7)n(C)c(=O)n8C7CCC(=O)NC7=O)[C@@H](C)C6)C5)CC4)ncc3Cl)ccc2n(C(C)C)c1=O (stereo partly drawn)', 'DC50', '< 10 nM'),
  ('CNC(=O)COc1cc2cc(Nc3nc(N4CCC(O[C@H]5C[C@H](N6CCN(c7cc8c(cc7OC)n(C7CCC(=O)NC7=O)c(=O)n8C)CC6)C5)CC4)ncc3Cl)ccc2n(C(C)C)c1=O (stereo partly drawn)', 'DC50', '< 10 nM'),
  ('CNC(=O)COc1cc2cc(Nc3nc(N4CCC(O[C@H]5C[C@H](N6CCN(c7ccc8c(c7)n(C(C)C)c(=O)n8C7CCC(=O)NC7=O)CC6)C5)CC4)ncc3Cl)ccc2n(C(C)C)c1=O (stereo partly drawn)', 'DC50', '< 10 nM'),
  ('CNC(=O)COc1cc2cc(Nc3nc(N4CCC(O[C@H]5C[C@H](N6CCN(c7ccc8ncn(C9CCC(=O)NC9=O)c8c7)CC6)C5)CC4)ncc3Cl)ccc2n(C(C)C)c1=O (stereo partly drawn)', 'DC50', '< 10 nM'),
  ('CNC(=O)COc1cc2cc(Nc3nc(N4CCC(O[C@H]5C[C@H](N6CCN(c7ccc8c(ccn8C8CCC(=O)NC8=O)c7)CC6)C5)CC4)ncc3Cl)ccc2n(C(C)C)c1=O (stereo partly drawn)', 'DC50', '< 10 nM'),
  ('CNC(=O)COc1cc2cc(Nc3nc(N4CCC(O[C@H]5C[C@H](N6CC[C@@H](c7cc(C)c8c(c7F)CN([C@H]7CCC(=O)NC7=O)C8=O)[C@@H](F)C6)C5)CC4)ncc3Cl)ccc2n(C(C)C)c1=O', 'DC50', '< 10 nM'),
  ('CNC(=O)COc1cc2cc(Nc3nc(N4CCC(O[C@H]5C[C@H](N6CCN(c7ccc8c(c7Cl)[C@H](C)N([C@H]7CCC(=O)NC7=O)C8=O)[C@H](C)C6)C5)CC4)ncc3Cl)ccc2n(C(C)C)c1=O (single isomer, unassigned)', 'DC50', '10 to 50 nM'),
  ('CNC(=O)COc1cc2cc(Nc3nc(N4CCC(O[C@H]5C[C@H](N6CCN(c7ccc8nn(C9CCC(=O)NC9=O)cc8c7)CC6)C5)CC4)ncc3Cl)ccc2n(C(C)C)c1=O (stereo partly drawn)', 'DC50', '10 to 50 nM');

Where do the numbers come from? From patent US20240190841A1.
